molecular target: Glucose-dependent insulinotropic receptor (Homo sapiens, UniProt Q8TDV5); assay: Agonist activity at human GPR119 expressed in CHO-K1 cells co-transfected with pcDNA3.1 assessed as increase in cAMP level; type: functional, cell-based
Result Type: EC50 (µM)

- CC[C@@H](Oc1ccc(C(=O)C2CC2)cc1)c1nc(-c2ccc(C(=O)N[C@H](C)CO)c(F)c2)no1: 0.051

* * *

Listed here: items and their measured log10 of EC50.
Biological target: Glucose-dependent insulinotropic receptor (Homo sapiens)
Sequence (Q8TDV5 whole entry): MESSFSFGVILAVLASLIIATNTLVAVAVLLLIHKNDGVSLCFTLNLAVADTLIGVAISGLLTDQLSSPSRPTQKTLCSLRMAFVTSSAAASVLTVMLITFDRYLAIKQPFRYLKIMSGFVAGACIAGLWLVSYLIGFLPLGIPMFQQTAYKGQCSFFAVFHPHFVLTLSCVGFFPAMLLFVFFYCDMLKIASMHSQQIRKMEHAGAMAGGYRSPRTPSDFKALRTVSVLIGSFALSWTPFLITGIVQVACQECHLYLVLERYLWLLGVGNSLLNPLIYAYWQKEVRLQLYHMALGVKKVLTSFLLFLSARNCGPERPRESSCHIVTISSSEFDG
Experiment: Agonist activity at human GPR119 expressed in CHO cells assessed as cAMP level measured after 90 mins by HTRF based assay
Format: functional, cell-based
Result Type: log10 of EC50 (log10 of the value in nM)

• CCc1cnc(N2CCC(COc3ccc(C4=CC[C@H](C(=O)N5CCC[C@@H]5CO)CC4)cc3)CC2)nc1 = 0.58
• CCOC(=O)C1CC=C(c2ccc(OCC3CCN(C(=O)OC(C)(C)C)CC3)cc2)CC1 (stereo not drawn) = 1.72
• CCc1cnc(N2CCC(COc3ccc(C4=CCC(C(=O)N5CC[C@@H](CO)C5)CC4)cc3)CC2)nc1 (stereo partly drawn) = 1.63
• CCc1cnc(N2CCC(COc3ccc(C4=CC[C@@H](C(=O)N5CCC[C@@H]5CO)CC4)cc3)CC2)nc1 = 1.51
• CCc1cnc(N2CCC(COc3ccc(C4=CCC(C(=O)N5CCC(F)(F)C5)CC4)cc3)CC2)nc1 (stereo not drawn) = 1.00
• CC(C)(C)OC(=O)N1CCC(COc2ccc(C3=CCC(C(=O)NCCO)CC3)cc2)CC1 (stereo not drawn) = 2.15
• CCc1cnc(N2CCC(COc3ccc(C4=CCC(C(=O)N5CC[C@@H](O)C5)CC4)cc3)CC2)nc1 (stereo partly drawn) = 1.11
• CCc1cnc(N2CCC(COc3ccc(C4=CCC(C(=O)N5CC[C@H](CO)C5)CC4)cc3)CC2)nc1 (stereo partly drawn) = 1.56

Values from ChEMBL document CHEMBL6153088
